This collection of values is drawn from patent US8710008B2.

- targetEntity: crude membranes from rat cerebellum (rat)
- assayInfo: radioligand saturation binding, non-linear regression, fit weighted 1/Y^2
Positions of bridges follow the written chain, without caps; N, C: chain ends. *: point of attachment. Boc = CC(C)(C)OC(=O)*
metric: pKd
Give bare numbers, as −log10 of the molar value.

Form field: reported pKd of Boc-PPSVVSG-OMe (bridge 3-6; also: tritium label)
7.03
